- Assay Protocol: Cytotoxic activity on normal cells, MTT viability assay
- Format: cell-based, human
- Cond: human, MRC-5 normal lung fibroblast cells; MRC-5; sample conc. 5.0 µM; Table S10

- Molecule: "CC(=NNc1nc(N2CCOCC2)nc(N2CCOCC2)n1)c1ccccc1N [DMAT]"
  viability at 24 h, 5 µM: "100%"

---

- Assay Protocol: Cytotoxic activity on normal cells, MTT viability assay
- Format: cell-based, human
- Cond: human, MRC-5 normal lung fibroblast cells; MRC-5; sample conc. 39.1 µM; Table S10
- Protocol: In this regard, the selectivity index (SI) was calculated as the ratio of cytotoxic effect on the normal cell line to the cytotoxic effect on the cancer cell line. Method S4 Evaluation of Cytotoxic activity The cells were propagated in Dulbecco’s modified Eagle’s medium (DMEM) supplemented with 10% heat-inactivated fetal bovine serum, 1 % L-glutamine, HEPES buffer and 50µg/mL Gentamycin. […] cells for at 37°C, for 24 h, the viabl e cells yield was determined by the MTT test. […]

- Substance Smiles: "CC(=NNc1nc(N2CCOCC2)nc(N2CCOCC2)n1)c1ccccc1N"
  viability at 24 h, 39.1 µM / %: 100

---

- Assay Protocol: Cytotoxic activity on normal cells, MTT viability assay
- Type: cell-based, human
- Cond: human, MRC-5 normal lung fibroblast cells; MRC-5; sample conc. 19.6 µM; Table S10
- Description: In this regard, the selectivity index (SI) was calculated as the ratio of cytotoxic effect on the normal cell line to the cytotoxic effect on the cancer cell line. Method S4 Evaluation of Cytotoxic activity The cells were propagated in Dulbecco’s modified Eagle’s medium (DMEM) supplemented with 10% heat-inactivated fetal bovine serum, 1 % L-glutamine, HEPES buffer and 50µg/mL Gentamycin. […] cells for at 37°C, for 24 h, the viabl e cells yield was determined by the MTT test. […]

- Compound: "CC(=NNc1nc(N2CCOCC2)nc(N2CCOCC2)n1)c1ccccc1N [DMAT]"
  viability at 24 h, 19.6 µM, %: 100

---

- Assay Protocol: Cytotoxic activity on normal cells, MTT viability assay
- Assay type: cell-based, human
- Cond: human, MRC-5 normal lung fibroblast cells; MRC-5; sample conc. 1254.8 µM; Table S10

- Substance Smiles: "CC(=NNc1nc(N2CCOCC2)nc(N2CCOCC2)n1)c1ccccc1N"
  viability at 24 h, 1254.8 µM (%): 26.1

---

- Assay Protocol: Cytotoxic activity on normal cells, MTT viability assay
- Type: cell-based, human
- Cond: human, MRC-5 normal lung fibroblast cells; MRC-5; sample conc. 312.9 µM; Table S12
- Procedure: In this regard, the selectivity index (SI) was calculated as the ratio of cytotoxic effect on the normal cell line to the cytotoxic effect on the cancer cell line. Method S4 Evaluation of Cytotoxic activity The cells were propagated in Dulbecco’s modified Eagle’s medium (DMEM) supplemented with 10% heat-inactivated fetal bovine serum, 1 % L-glutamine, HEPES buffer and 50µg/mL Gentamycin. […] cells for at 37°C, for 24 h, the viabl e cells yield was determined by the MTT test. […]

- Substance Smiles: "CC(=NNc1nc(N2CCOCC2)nc(N2CCOCC2)n1)c1ccccc1O"
  Unit Text: "%"
  viability at 24 h, 312.9 µM: 89.6

---

- Assay Protocol: Cytotoxic activity on normal cells, MTT viability assay
- Assay type: cell-based, human
- Cond: human, MRC-5 normal lung fibroblast cells; MRC-5; sample conc. 78.2 µM; Table S12
Parameter: viability at 24 h, 78.2 µM

- Substance Smiles: "CC(=NNc1nc(N2CCOCC2)nc(N2CCOCC2)n1)c1ccccc1O"
  Parameter: "viability at 24 h, 78.2 µM"
  Recorded Measurement: "100%"

---

- Assay Protocol: Cytotoxic activity on normal cells, MTT viability assay
- Assay type: cell-based, human
- Cond: human, MRC-5 normal lung fibroblast cells; MRC-5; sample conc. 9.8 µM; Table S10

- Compound: "CC(=NNc1nc(N2CCOCC2)nc(N2CCOCC2)n1)c1ccccc1N [DMAT]"
  viability at 24 h, 9.8 µM / %: 100

---

- Assay Protocol: Cytotoxic activity on normal cells, MTT viability assay
- Format: cell-based, human
- Cond: human, MRC-5 normal lung fibroblast cells; MRC-5; sample conc. 2.5 µM; Table S10

- Compound: "CC(=NNc1nc(N2CCOCC2)nc(N2CCOCC2)n1)c1ccccc1N [DMAT]"
  viability at 24 h, 2.5 µM: "100%"

---

- Assay Protocol: Cytotoxic activity on normal cells, MTT viability assay
- Assay type: cell-based, human
- Cond: human, MRC-5 normal lung fibroblast cells; MRC-5; sample conc. 156.5 µM; Table S12

- Substance Smiles: "CC(=NNc1nc(N2CCOCC2)nc(N2CCOCC2)n1)c1ccccc1O"
  viability at 24 h, 156.5 µM / %: 97.9

---

- Assay Protocol: Cytotoxic activity on normal cells, MTT viability assay
- Type: cell-based, human
- Cond: human, MRC-5 normal lung fibroblast cells; MRC-5; sample conc. 5.0 µM; Table S12

- Substance Smiles: "CC(=NNc1nc(N2CCOCC2)nc(N2CCOCC2)n1)c1ccccc1O"
  viability at 24 h, 5 µM: "100%"

---

- Assay Protocol: Cytotoxic activity on normal cells, MTT viability assay
- Assay type: cell-based, human
- Cond: human, MRC-5 normal lung fibroblast cells; MRC-5; sample conc. 625.8 µM; Table S12
Parameter: viability at 24 h, 625.8 µM (%)

- Molecule: "CC(=NNc1nc(N2CCOCC2)nc(N2CCOCC2)n1)c1ccccc1O [DMOHT]"
  Recorded Measurement: 67.6

---

- Test system: lung carcinoma A-549 cell line
- Assay Protocol: Anticancer activity, MTT viability assay
- Assay type: cell-based
- Cond: CC50 (MRC-5) / IC50 (A-549)
Parameter: SI = CC50/IC50

- Compound: "CC(=NNc1nc(N2CCOCC2)nc(N2CCOCC2)n1)c1ccccc1[O-].CC(=O)[O-].[Cu+2] [Complex 2, [Cu(DMOT)(CH3COO)]]"
  Target Desc: "lung carcinoma A-549 cell line"
  Parameter: "SI = CC50/IC50"
  Recorded Measurement: 0.72
- Compound: "CC(=NNc1nc(N2CCOCC2)nc(N2CCOCC2)n1)c1ccccc1[O-].O=[N+]([O-])[O-].[Cu+2] [Complex 3, [Cu(DMOT)(NO3)]]"
  Target Desc: "lung carcinoma A-549 cell line"
  Parameter: "SI = CC50/IC50"
  Recorded Measurement: 2.96
- Compound: "CC(=NNc1nc(N2CCOCC2)nc(N2CCOCC2)n1)c1ccccc1N [DMAT]"
  Target Desc: "lung carcinoma A-549 cell line"
  Parameter: "SI = CC50/IC50"
  Recorded Measurement: 1.30
- Compound: "CC(=NNc1nc(N2CCOCC2)nc(N2CCOCC2)n1)c1ccccc1O [DMOHT]"
  Target Desc: "lung carcinoma A-549 cell line"
  Parameter: "SI = CC50/IC50"
  Recorded Measurement: 1.77

---

- Assay Protocol: Cytotoxic activity on normal cells, MTT viability assay
- Format: cell-based, human
- Cond: human, MRC-5 normal lung fibroblast cells; MRC-5; sample conc. 313.7 µM; Table S10
Parameter: viability at 24 h, 313.7 µM (%)

- Substance Smiles: "CC(=NNc1nc(N2CCOCC2)nc(N2CCOCC2)n1)c1ccccc1N"
  Parameter: "viability at 24 h, 313.7 µM"
  Recorded Measurement: 89.3
